System: ACHN renal
Test: NCI tumour cell line growth inhibition, 48 h
Measurement kind: TGI

Look over these answered cases.
O=c1c2nc(-c3ccccc3)oc2n(-c2ccccc2)c(=O)n1-c1ccccc1; > 46.4 µM
O=C(O)c1cccc(NC(C(=O)c2ccccc2)c2ccccc2)c1 (stereo not given); > 100 µM
O=C(NCC(F)(F)F)Nc1cccc(-c2cnc3cc(-c4ccc(F)cc4)ccn23)c1; > 52.1 µM
CCOc1cc2c(cc1O)C(O)C[C@@H]1[C@@H]2CC[C@]2(C)[C@@H](O)CC[C@@H]12 (stereo not given in full); > 100 µM
NC(N)=NC1C(O)C(O)C(O)C(N=C(N)N)C1O (stereo not given); > 100 µM
CC1(C)C=C(/C=N/Nc2ccccc2)C(C#N)=C(O)C1(C#N)C#N; > 100 µM
C#CC1=CC(=O)C(OC)=CC1=O; 11.3 µM
CCSC1=CC2(O)N(CCc3ccc(OC)c(OC)c3)C(=O)CC2(C(=O)OC)CC1=O (stereo not given); > 100 µM

What TGI appears in the records for this molecule with ACHN renal? COc1cc(N(CCC#N)CCC#N)ccc1/C=N\NC(=O)c1ccc(C)cc1
> 100 µM

What TGI appears in the records for this molecule with ACHN renal? O=C(NNc1ccc(Cl)cc1)C1CCC(CNS(=O)(=O)c2ccccc2Cl)CC1 (stereo not given)
66.1 µM
